Below is a list of entries, each paired with its recorded 50% inhibition concentration, Regnase-1 phosphorylation by TBK1 (AlphaScreen) value.
Target: T1, full-length human Regnase-1 with a FLAG tag on the N-terminal side and a biotin ligase BirA recognition … (human, UniProt Q5D1E8 1-599, biotinylated at the BirA recognition sequence when required)
T1 sequence: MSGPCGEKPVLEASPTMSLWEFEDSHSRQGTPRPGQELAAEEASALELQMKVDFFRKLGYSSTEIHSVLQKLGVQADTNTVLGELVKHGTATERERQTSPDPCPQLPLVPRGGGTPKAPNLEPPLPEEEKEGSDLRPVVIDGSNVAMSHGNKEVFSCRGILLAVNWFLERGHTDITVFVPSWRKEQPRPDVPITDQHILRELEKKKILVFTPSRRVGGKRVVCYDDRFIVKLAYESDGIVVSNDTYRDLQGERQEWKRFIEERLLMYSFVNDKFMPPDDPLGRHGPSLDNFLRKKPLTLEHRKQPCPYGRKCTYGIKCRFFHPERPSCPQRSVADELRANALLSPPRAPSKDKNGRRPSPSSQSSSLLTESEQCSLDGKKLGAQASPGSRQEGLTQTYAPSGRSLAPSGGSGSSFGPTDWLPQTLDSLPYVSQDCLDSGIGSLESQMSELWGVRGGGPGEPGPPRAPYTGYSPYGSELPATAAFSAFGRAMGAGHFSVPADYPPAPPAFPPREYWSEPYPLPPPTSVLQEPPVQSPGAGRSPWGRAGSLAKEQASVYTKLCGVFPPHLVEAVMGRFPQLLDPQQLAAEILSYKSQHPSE
Assay: cell-based or functional assay
Positions of bridges follow the written chain, without caps; N, C: chain ends. Non-standard residues stand in square brackets, D forms with d. *: point of attachment. Pyrrolidide = C1CCN(*)C1; dNMeA = CN[C@H](C)C(=O)O
MEASUREMENT KIND: 50% inhibition concentration, Regnase-1 phosphorylation by TBK1 (AlphaScreen) (µM)

INSERT INTO results (binder, meas_value) VALUES
  ('XNFNSAYYRAIWD (HELM PEPTIDE1{[meA].N.F.N.S.A.Y.Y.R.A.I.W.D.[C1CCN([*:1])C1]}$PEPTIDE1,PEPTIDE1,1:R1-13:R3$$$V2.0; SMILES CC[C@H](C)[C@@H]1NC(=O)[C@H](C)NC(=O)[C@H](CCCNC(=N)N)NC(=O)[C@H](Cc2ccc(O)cc2)NC(=O)[C@H](Cc2ccc(O)cc2)NC(=O)[C@H](C)NC(=O)[C@H](CO)NC(=O)[C@H](CC(N)=O)NC(=O)[C@H](Cc2ccccc2)NC(=O)[C@H](CC(N)=O)NC(=O)[C@H](C)N(C)C(=O)C[C@@H](C(=O)N2CCCC2)NC(=O)[C@H](Cc2c[nH]c3ccccc23)NC1=O) [PP7]', 2.2),
  ('XRFGVWSWIYPD (HELM PEPTIDE1{[meA].R.F.G.V.W.S.W.I.Y.P.D.[C1CCN([*:1])C1]}$PEPTIDE1,PEPTIDE1,1:R1-12:R3$$$V2.0; SMILES CC[C@H](C)[C@@H]1NC(=O)[C@H](Cc2c[nH]c3ccccc23)NC(=O)[C@H](CO)NC(=O)[C@H](Cc2c[nH]c3ccccc23)NC(=O)[C@H](C(C)C)NC(=O)CNC(=O)[C@H](Cc2ccccc2)NC(=O)[C@H](CCCNC(=N)N)NC(=O)[C@H](C)N(C)C(=O)C[C@@H](C(=O)N2CCCC2)NC(=O)[C@@H]2CCCN2C(=O)[C@H](Cc2ccc(O)cc2)NC1=O) [PP14]', 3.1),
  ('[dNMeA]EDTPEDDHD-Pyrrolidide (lactam N-10) [PP25]', 18.9),
  ('XTSWYKVNWGQD (HELM PEPTIDE1{[meA].T.S.W.Y.K.V.N.W.G.Q.D.[C1CCN([*:1])C1]}$PEPTIDE1,PEPTIDE1,1:R1-12:R3$$$V2.0; SMILES CC(C)[C@@H]1NC(=O)[C@H](CCCCN)NC(=O)[C@H](Cc2ccc(O)cc2)NC(=O)[C@H](Cc2c[nH]c3ccccc23)NC(=O)[C@H](CO)NC(=O)[C@H]([C@@H](C)O)NC(=O)[C@H](C)N(C)C(=O)C[C@@H](C(=O)N2CCCC2)NC(=O)[C@H](CCC(N)=O)NC(=O)CNC(=O)[C@H](Cc2c[nH]c3ccccc23)NC(=O)[C@H](CC(N)=O)NC1=O) [PP1]', 54.5);
